We begin with a simple list: items and their reported Fik Kinase %Inhibition.
- target.system: FLK-1 receptor (Mus musculus, UniProt P35918)
- Construct: expressed in transfected cells; host or cells: NIH3T3 C7#3
- Sequence (P35918 20-1345): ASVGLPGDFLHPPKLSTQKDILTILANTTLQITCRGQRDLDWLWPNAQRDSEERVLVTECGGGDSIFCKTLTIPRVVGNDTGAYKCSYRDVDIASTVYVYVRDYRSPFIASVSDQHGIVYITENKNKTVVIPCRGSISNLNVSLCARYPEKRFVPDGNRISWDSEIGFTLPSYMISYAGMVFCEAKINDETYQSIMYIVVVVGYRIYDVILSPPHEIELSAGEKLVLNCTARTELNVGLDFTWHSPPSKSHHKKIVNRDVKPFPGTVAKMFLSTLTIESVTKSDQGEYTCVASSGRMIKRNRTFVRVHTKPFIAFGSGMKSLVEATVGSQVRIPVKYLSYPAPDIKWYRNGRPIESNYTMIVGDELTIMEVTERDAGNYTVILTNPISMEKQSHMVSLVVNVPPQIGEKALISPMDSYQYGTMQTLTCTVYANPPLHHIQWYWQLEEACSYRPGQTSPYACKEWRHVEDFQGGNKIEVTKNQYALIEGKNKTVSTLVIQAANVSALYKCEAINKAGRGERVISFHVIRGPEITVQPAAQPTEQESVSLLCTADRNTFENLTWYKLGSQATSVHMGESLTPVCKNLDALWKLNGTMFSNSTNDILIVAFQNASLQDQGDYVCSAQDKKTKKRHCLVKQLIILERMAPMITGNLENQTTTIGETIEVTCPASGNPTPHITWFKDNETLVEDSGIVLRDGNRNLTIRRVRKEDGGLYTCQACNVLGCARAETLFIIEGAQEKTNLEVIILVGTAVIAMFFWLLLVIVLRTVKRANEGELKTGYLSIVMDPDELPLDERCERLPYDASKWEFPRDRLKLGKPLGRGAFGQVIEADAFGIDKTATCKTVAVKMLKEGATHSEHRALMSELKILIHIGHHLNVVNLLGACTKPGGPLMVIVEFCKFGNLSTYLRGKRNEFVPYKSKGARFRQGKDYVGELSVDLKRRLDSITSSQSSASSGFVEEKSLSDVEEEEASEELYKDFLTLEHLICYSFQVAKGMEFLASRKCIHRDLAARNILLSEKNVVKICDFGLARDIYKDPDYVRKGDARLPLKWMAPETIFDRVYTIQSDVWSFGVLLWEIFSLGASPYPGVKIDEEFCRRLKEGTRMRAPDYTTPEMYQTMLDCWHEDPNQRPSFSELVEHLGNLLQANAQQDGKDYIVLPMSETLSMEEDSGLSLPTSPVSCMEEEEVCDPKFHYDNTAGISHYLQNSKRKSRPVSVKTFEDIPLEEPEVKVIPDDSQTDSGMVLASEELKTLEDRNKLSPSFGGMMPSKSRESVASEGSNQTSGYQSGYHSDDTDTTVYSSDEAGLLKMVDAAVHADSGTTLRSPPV
- procedure.summary: FLK-1 ELISA (kinase activity of the FLK-1 receptor in FLK-1/NIH3T3 cells, VEGF stimulated)
- Type: cell-based
Report the value in % with no unit label.

{"compound": "COc1cc(OC)c(OC)cc1C=C1C(=O)Nc2ccc(CCCl)cc21 [10730/G03]", "target.system": "FLK-1 receptor (Mus musculus, UniProt P35918)", "Fik Kinase %Inhibition / %": 15.2}
{"compound": "COc1cc(C=C2C(=O)Nc3ccc(S(=O)(=O)Nc4ccc(C(F)(F)F)cc4)cc32)cc(OC)c1 [10728/E04]", "target.system": "FLK-1 receptor (Mus musculus, UniProt P35918)", "Fik Kinase %Inhibition / %": 5.5}

Looking up Cc1cc(C=C2C(=O)Nc3ccc(Br)c(C)c32)[nH]n1 [10725/C05] , I see its Fik Kinase %Inhibition listed as -37.0

* * *

- target.system: EGFR (Homo sapiens)
- Construct: Add 7 ug A431 cell lysate per well (EGFR source); endogenous in cells; host or cells: A431
- Sequence (P00533 25-1210): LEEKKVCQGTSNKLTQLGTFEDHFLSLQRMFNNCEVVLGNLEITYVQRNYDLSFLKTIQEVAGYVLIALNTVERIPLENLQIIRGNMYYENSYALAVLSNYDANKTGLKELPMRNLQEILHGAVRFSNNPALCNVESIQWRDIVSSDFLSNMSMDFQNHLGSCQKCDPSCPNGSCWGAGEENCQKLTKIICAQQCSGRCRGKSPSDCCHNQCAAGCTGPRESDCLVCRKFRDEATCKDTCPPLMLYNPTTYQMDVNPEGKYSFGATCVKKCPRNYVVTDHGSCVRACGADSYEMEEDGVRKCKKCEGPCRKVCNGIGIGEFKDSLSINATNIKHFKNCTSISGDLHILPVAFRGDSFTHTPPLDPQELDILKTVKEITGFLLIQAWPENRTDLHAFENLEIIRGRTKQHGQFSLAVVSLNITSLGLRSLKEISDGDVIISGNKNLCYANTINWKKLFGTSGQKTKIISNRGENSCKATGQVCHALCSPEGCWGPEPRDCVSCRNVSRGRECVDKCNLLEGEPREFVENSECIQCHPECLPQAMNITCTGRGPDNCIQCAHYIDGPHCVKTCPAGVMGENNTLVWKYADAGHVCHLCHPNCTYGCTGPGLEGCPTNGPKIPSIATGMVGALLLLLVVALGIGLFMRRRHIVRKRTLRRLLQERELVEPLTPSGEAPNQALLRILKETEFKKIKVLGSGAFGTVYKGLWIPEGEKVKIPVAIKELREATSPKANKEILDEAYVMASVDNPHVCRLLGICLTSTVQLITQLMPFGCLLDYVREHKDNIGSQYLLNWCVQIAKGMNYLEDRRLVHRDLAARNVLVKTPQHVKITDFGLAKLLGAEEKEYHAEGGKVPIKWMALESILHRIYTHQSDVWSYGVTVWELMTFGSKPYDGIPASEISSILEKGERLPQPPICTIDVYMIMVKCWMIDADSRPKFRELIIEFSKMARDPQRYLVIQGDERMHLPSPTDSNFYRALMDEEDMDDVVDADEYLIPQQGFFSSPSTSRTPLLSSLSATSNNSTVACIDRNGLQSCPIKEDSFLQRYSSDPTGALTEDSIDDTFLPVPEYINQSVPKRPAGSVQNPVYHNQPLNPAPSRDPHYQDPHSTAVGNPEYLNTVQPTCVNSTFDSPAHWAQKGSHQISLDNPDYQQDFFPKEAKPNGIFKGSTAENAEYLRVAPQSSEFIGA
- procedure.summary: EGFR ELISA assay (in vitro kinase activity, EGFR captured from A431 cell lysate)
- Format: biochemical
- Parameters: concentration or dose not given beside the values
Output satisfied for Biochem EGFR %Inhibition not less than 20%; output not satisfied otherwise.

A selection of reference data follows.
{"smiles.structure": "COc1ccc(O)c(C=C2C(=O)Nc3ccc(S(=O)(=O)Nc4ccc(C(F)(F)F)cc4)cc32)c1", "qualitative.label": "satisfied"}
{"smiles.structure": "O=C1Nc2ccc(CCCl)cc2C1=Cc1cc([N+](=O)[O-])ccc1O", "qualitative.label": "not satisfied"}
{"smiles.structure": "O=C1Nc2ccc(S(=O)(=O)N3CCOCC3)cc2C1=Cc1cccc([N+](=O)[O-])c1", "qualitative.label": "not satisfied"}
{"smiles.structure": "O=C1Nc2c(Br)cc(Br)cc2C1=Cc1ccc(F)cc1", "qualitative.label": "not satisfied"}

Now consider the entry below.
# input Assess whether reported Biochem EGFR %Inhibition for CC(C)c1cc(C=C2C(=O)Nc3ccc(CCCl)cc32)cc(C(C)C)c1Oc1ccccc1 sits at 20% or higher.
# output not satisfied

* * *

- System: MET
- procedure.summary: MET biochemical kinase assay
- Parameters: species or system human; concentration or dose not given beside the values
- From the text: A met biochemical kinase assay may be performed for met generally as described above for other kinases by substituting that or the other kinases. […] Incorporation of phosphate into the captured receptors is detected with an anti-phosphotyrosine antibody conjugate with horse radish peroxidase using TMB as a substrate for colorimetric detection.
Classification scheme (Met Kinase % Inhibition): b0: < 40%; b1: ≥ 40% and < 70%; b2: ≥ 70%

Reference set, count: 10
{"smiles.structure": "Cc1c(Br)ccc2c1C(=Cc1cc3c4c(c1O)CCCN4CCC3)C(=O)N2", "qualitative.label": "b1"}
{"smiles.structure": "CNS(=O)(=O)c1ccc2c(c1)C(=Cc1ccc(O)c(C(C)(C)C)c1)C(=O)N2", "qualitative.label": "b0"}
{"smiles.structure": "O=C1Nc2ccc(CCCl)cc2C1=Cc1cc(O)c2c(c1O)CCCC2", "qualitative.label": "b2"}
{"smiles.structure": "CC(C)(C)c1cc(C=C2C(=O)Nc3ccc(I)cc32)ccc1O", "qualitative.label": "b0"}
{"smiles.structure": "Cc1cc(C=C2C(=O)Nc3ccc(I)cc32)cc(C(C)(C)C)c1O", "qualitative.label": "b2"}
{"smiles.structure": "Cc1cc(C=C2C(=O)Nc3ccc(I)cc32)cc(C)c1OCc1ccccc1", "qualitative.label": "b2"}
{"smiles.structure": "CC(C)(C)c1cc(C=C2C(=O)Nc3ccc(I)cc32)cc([N+](=O)[O-])c1O", "qualitative.label": "b1"}
{"smiles.structure": "O=C1Nc2ccc(S(=O)(=O)Nc3ccc(C(F)(F)F)cc3)cc2C1=Cc1ccc(Br)s1", "qualitative.label": "b1"}
{"smiles.structure": "COC(=O)c1[nH]c(C)c(C=C2C(=O)Nc3ccc(Br)c(C)c32)c1C(=O)OC", "qualitative.label": "b0"}
{"smiles.structure": "CC(C)(C)c1cc(C=C2C(=O)Nc3ccc(S(=O)(=O)N4CCOCC4)cc32)cc(Cl)c1OCc1ccccc1", "qualitative.label": "b1"}

# input Which of the defined bands does the recorded Met Kinase % Inhibition of O=C1Nc2c(Br)cc(Br)cc2C1=Cc1ccccc1Br sit within?
# output b1

# input // bin(item) where item = CCn1c2ccccc2c2cc(C=C3C(=O)Nc4ccc(S(=O)(=O)NC)cc43)ccc21
# output b0

# input // bin(item) where item = CNS(=O)(=O)c1ccc2c(c1)C(=Cc1coc3ccc([N+](=O)[O-])cc3c1=O)C(=O)N2
# output b1
